TESTED_TARGET: T1, CRH (CT-Biotin) (human and mouse, biotin on the added C-terminal K (-K-Biotin))
T1 construct: also called Peptide 4 (CRH-Biotin); C-terminally biotinylated corticotropin-releasing hormone
T1 peptide: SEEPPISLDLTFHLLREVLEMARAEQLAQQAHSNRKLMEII
METHOD_SUMMARY: ELISA, C-terminally biotinylated CRH on streptavidin-coated plate
PARAMETER: pEC50
Scale: pEC50 equals -log10([C]), with [C] in mol/L.

BINDER	MEASUREMENT
PR301306 (antibody, human IgG1, kappa, V domains shown, Mouse variable domains, expressed recombinantly with human IgG1 wildtype Fc; also called Series 3 mAb) VH: EVKLEESGGGLVQPGGSMKLSCVASGFTFSNYWMNWVRQSPEKGLEWVAEIRLKSNNYATLYAESVKGRFTISRDDSKSSVYLQMNNLRAEDTGIYYCTRGTLVYWGQGTLVTVSA VL: DIVLTQSPASLAVSLGQRATISCRASQSVSTSDYNYMHWYQQKPGQPPKLLIKYASNLESGVPARFSGSGSGTDFTLNIHPVEEEDTATYYCQHSWEIPYTFGGGTKLEIKR	10.43
PR301612 (antibody, human IgG1, kappa, V domains shown, Mouse variable domains, expressed recombinantly with human IgG1 wildtype Fc; also called Series 4 mAb) VH: EVKLEESGGGLVQPGGSIKLSCVASGFTFSGAWMAWVRQSPEKGLEWVAEIKNKANNHATFYAESVKGRFIISRDDSKSSVYLQMNSLRAEDTGTYYCTLPDVWGTGTTVTVSS VL: QIVLTQSPAIMSASPGERVTISCSASSSVSNMYWYLQKPGSSPKPWIYRTSNLASGVPARFSGSGSGTSYSLTISSMEAEDVATYYCQQYHSFPRTFGGGTKLEIKR	10.48

// next item, pEC50 requested
Looking up PR302332 (antibody, human IgG1, kappa, V domains shown, Mouse variable domains, expressed recombinantly with human IgG1 wildtype Fc; also called Series 7 mAb) VH: QIQLVQSGPELKKPGETVKISCKASGYTFTNFGMHWVKQAPGKVLKWMGWINTYTGEPIYAADFKGRFAFSLETSASTAYLQINNLKNEDTATYFCSRSTMITTGGVFAYWGQGTLVTVSA VL: DVLMAQTPLSLPVSLGDQASISCRSSQSIVHSDGNTYLEWYLQKPGQSPKLLIYKVSNRFSGVPDRFSGSGSGTDFTLKISRVEAEDLGVYYCFQGSHVPWTFGGGTKLEIKR , I see its pEC50 listed as 10.14

Values compiled from patent US20260042834A1.
